# target.under.test: HCV genotype 1b NS5B protein containing the S282T mutation (Hepatitis C virus genotype 1b, UniProt Q9WMX2, S2701T)
# Construct: HCV genotype 1b NS5B protein were used to generate recombinant HCV polymerases (with a deletion of the 21 carboxy terminal amino acids)
# test.details: HCV polymerase enzyme assay, S282T mutant

compound: O=c1ccn([C@@H]2O[C@H](COP(=O)(O)OP(=O)(O)OP(=O)(O)O)[C@@H](O)[C@@]2(F)Cl)c(=O)[nH]1 [Compound 2005]
IC50: 1000 to 10000 nM
--
compound: Nc1ccn([C@@H]2O[C@H](COP(=O)(O)OP(=O)(O)OP(=O)(O)O)[C@@H](O)C2(Cl)Cl)c(=O)n1 [Compound 2001]
IC50: 250 to 1000 nM
--
compound: O=c1ccn([C@@H]2O[C@H](COP(=O)(O)OP(=O)(O)OP(=O)(O)O)[C@@H](O)C2(Cl)Cl)c(=O)[nH]1 [Compound 2002]
IC50: 1000 to 10000 nM
--
compound: O=c1ccn([C@@H]2O[C@H](COP(=O)(O)OP(=O)(O)OP(=O)(O)O)[C@@H](O)[C@]2(F)Cl)c(=O)[nH]1 [Compound 2004]
IC50: 1000 to 10000 nM
--
compound: Nc1nc2c(ncn2[C@@H]2O[C@H](COP(=O)(O)OP(=O)(O)OP(=O)(O)O)[C@@H](O)[C@]2(F)Cl)c(=O)[nH]1 [Compound 2003]
IC50: < 250 nM

These data points were gathered from patent US20170198005A1.
